Assay read-out Kd; system under study: BRD4 (Homo sapiens, UniProt O60885).

Below are worked cases with known answers.
Cn1cc2c(cc1=O)C(C)(C)C(=O)N2CCN1CCCC1 [Compound 14d]; > 200 µM
CCC1(CC)C(=O)N(C)c2cn(Cc3ccc(C(F)(F)F)cc3)c(=O)cc21 [Compound 18b]; > 2000 µM
CCCn1cc2c(cc1=O)C(C)(C)C(=O)N2C [Compound 17b]; > 200 µM
Cn1cc2c(cc1=O)C(C)(C)C(=O)N2CCc1ccccc1 [Compound 14c]; > 200 µM

Now examine the next entry.
Input: Form entry - test system: BRD4 (Homo sapiens, UniProt O60885); read-out: Kd; molecule: CN1C(=O)C(C)(C)c2cc(=O)n(Cc3ccccc3C(=O)O)cc21 [Compound 17q]
Output: > 200 µM

====

# Study target: GST-ATAD2 bromodomain / biotinylated acetylated histone H4 peptide (Homo sapiens)
# Construct: 981-1108
# Test description: ATAD2-histone displacement HTRF assay
# Stated conditions: HTRF format assay; highest concentration 1000 μM
pIC50: −log10 of the molar value.
Collected pIC50 values appear next to each entry.

CC1(C)C(=O)Nc2cn(Cc3ccccc3)c(=O)cc21 [Compound 15c]; < 3.00
Cn1cc2c(cc1=O)C(C)(C)C(=O)N2CCN1CCCC1 [Compound 14d]; < 3.00

Input: Can you look up the measured pIC50 of CN1C(=O)C(C)(Cc2ccccc2)c2cc(=O)n(Cc3ccc(Cl)cc3)cc21 (stereo not drawn) [Compound 22a] for me?
Output: < 3.00

====

# Study target: ATAD2 bromodomain (Homo sapiens, UniProt Q6PL18)
# Construct: 981-1108; GST (N); made in house; host or cells: Escherichia coli BL21 (DE3) pLysS, plasmid pGEX-6P-1
# Sequence (Q6PL18 981-1108): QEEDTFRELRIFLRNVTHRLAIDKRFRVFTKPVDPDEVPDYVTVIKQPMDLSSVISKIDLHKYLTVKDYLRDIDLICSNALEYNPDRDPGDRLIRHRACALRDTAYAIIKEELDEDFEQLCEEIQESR
# Test description: Surface plasmon resonance (SPR) direct binding to ATAD2
# Stated conditions: SPR format assay; Kd above the top concentration projected by extrapolation (extrapolated Rmax from control compound)
pKd: −log10 of the molar value.
Property: pKd

Example entries and their recorded answers appear below.
CN1C(=O)C(C)(C)c2cc(=O)n(Cc3ccc(C(N)=O)cc3)cc21 [Compound 17h]; < 3.70
CN1C(=O)C(C)(C)c2cc(=O)n(Cc3ccc(Br)cc3)cc21 [Compound 17k]; 3.86
CN1C(=O)C(C)(C)c2cc(=O)n(C)cc21 [Compound 17a]; < 2.70
Cn1cc2c(cc1=O)C(C)(C)C(=O)N2CCc1ccccc1 [Compound 14c]; < 3.70
CCC1(CC)C(=O)N(C)c2cn(Cc3ccc(Cl)cc3)c(=O)cc21 [Compound 18a]; 3.97

Input: pKd lookup needed for Cn1cc2c(cc1=O)C(C)(C)C(=O)N2CCN1CCOCC1 [Compound 14e] , thanks.
Output: < 2.70

Input: Reported pKd, compound CN1C(=O)C(C)(C)c2cc(=O)n(Cc3ccc(C(=O)O)cc3)cc21 [Compound 17f] : ____
Output: < 3.70

Input: If you can, please state the reported pKd value of CN1C(=O)C(C)(C)c2cc(=O)n(Cc3ccc(C(F)(F)F)cc3)cc21 [Compound 17m] .
Output: < 3.70

Input: Please give the measured pKd for this compound: Cn1cc2c(cc1=O)C(C)(C)C(=O)N2CCO [Compound 14g]
Output: < 2.70

Input: Bench note: what pKd did CN1C(=O)C(C)(C)c2cc(=O)n(CCc3ccccc3)cc21 [Compound 17d] show?
Output: < 3.70

Input: Please give the measured pKd for this compound: CN1C(=O)C(C)(CC(C)(C)C)c2cc(=O)n(Cc3ccc(Cl)cc3)cc21 (stereo not shown) [Compound 22d]
Output: 3.90

Input: Which measured pKd value corresponds to CN1C(=O)C(C)(C)c2cc(=O)n(Cc3ccc(Cl)cc3)cc21 [Compound 17j] ?
Output: 3.70

Input: Suppose we examine the compound CN1C(=O)C(C)(C)c2cc(=O)n(Cc3ccccc3C(=O)O)cc21 [Compound 17q] ; what pKd value has been reported?
Output: < 2.70

Input: # query: pKd of entry Cc1ccc(Cn2cc3c(cc2=O)C(C)(C)C(=O)N3C)cc1 [Compound 17l]
Output: < 3.70

Input: Which pKd value belongs to CCC1(CC)C(=O)N(C)c2cn(Cc3ccc(C(F)(F)F)cc3)c(=O)cc21 [Compound 18b] ?
Output: < 3.70

Input: If you can, please state the reported pKd value of Cc1nc(CC2(C)C(=O)N(C)c3cn(Cc4ccc(Cl)cc4)c(=O)cc32)cs1 (stereo not shown) [Compound 22c] .
Output: 3.96
